target: HLA-A*30:01; test: IEDB peptide-MHC binding, purified MHC/competitive/radioactivity; filed as Kd, often an IC50 or EC50 that approximates it; bounds were set here for any values at or beyond the usual limits of such assays; conditions: source organism: Dengue virus 3 Martinique/1243/1999
pKd: −log10 of the molar value.
Measured Parameter: pKd

> print(dat)
   sequence.chain  measured.parameter  experimental.value
1       ATQLATLRK                 pKd                8.24

* * *

molecular target: HLA-B*35:01; experiment: IEDB peptide-MHC binding, purified MHC/direct/fluorescence; filed as Kd, often an IC50 or EC50 that approximates it; bounds were set here for any values at or beyond the usual limits of such assays; conditions: source organism: Mycobacterium tuberculosis str. Haarlem
pKd: −log10 of the molar value.
Measured Parameter: pKd

> print(dat)
   sequence.chain  experimental.value
1       EILWDVIPF                8.52

* * *

target: HLA-A*02:03; test: IEDB peptide-MHC binding, purified MHC/direct/fluorescence; filed as Kd, often an IC50 or EC50 that approximates it; bounds were set here for any values at or beyond the usual limits of such assays; settings: source organism: Choclo virus
pKd: −log10 of the molar value.
Measured Parameter: pKd

> print(dat)
   sequence.chain          tgt  measured.parameter  experimental.value
1       HWMDATFNI  HLA-A*02:03                 pKd              ≤ 4.70

* * *

molecular target: HLA-B*51:01; experiment: IEDB peptide-MHC binding, purified MHC/competitive/fluorescence; filed as Kd, often an IC50 or EC50 that approximates it; bounds were set here for any values at or beyond the usual limits of such assays; conditions: source organism: Zaire ebolavirus
Entries and their Kd
Measured Parameter: Kd

> print(dat)
   sequence.chain          tgt  measured.parameter  experimental.value
1       IFLKPDETF  HLA-B*51:01                  Kd             ≥ 20 µM
2       SQVRVPTVF  HLA-B*51:01                  Kd             ≥ 20 µM

* * *

biological target: HLA-B*40:01; assay: IEDB peptide-MHC binding, purified MHC/competitive/radioactivity; filed as Kd, often an IC50 or EC50 that approximates it; bounds were set here for any values at or beyond the usual limits of such assays; details: source organism: Mammarenavirus guanaritoense
Measured Parameter: Kd (nM)

> print(dat)
   sequence.chain  measured.parameter  output.unit  experimental.value
1       TEQFINYCL                  Kd           nM                 306

* * *

biological target: HLA-A*02:03; test: IEDB peptide-MHC binding, purified MHC/competitive/radioactivity; filed as Kd, often an IC50 or EC50 that approximates it; bounds were set here for any values at or beyond the usual limits of such assays; details: source organism: Dengue virus 3 Sri Lanka/1266/2000
pKd: −log10 of the molar value.
Measured Parameter: pKd

> print(dat)
   sequence.chain  experimental.value
1       CLMMILPAA                8.98

* * *

target: HLA-A*11:01; experiment: IEDB peptide-MHC binding, purified MHC/competitive/fluorescence; filed as Kd, often an IC50 or EC50 that approximates it; bounds were set here for any values at or beyond the usual limits of such assays; settings: source organism: Vaccinia virus WR
pKd: −log10 of the molar value.
Measured Parameter: pKd

> print(dat)
   sequence.chain  measured.parameter  experimental.value
1       EIKDRILSY                 pKd              ≤ 4.70
